# Tested on: E. coli ATCC 25922
# protocol: MIC, E. coli ATCC 25922
# Assay type: cell-based
# applied conditions: Table 18, Ec
assay readout: MIC Ec

Some entries whose results are on file:
CNc1cc(F)cc2c1[nH]c1nc(Nc3cnc4ccnn4c3)nc(N3C[C@H]4C[C@@H]3C[C@H]4N)c12: ≤ 0.5 µg/mL
CNc1cc(F)cc2c1[nH]c1nc(Oc3cnc(C)nc3)nc(N3C[C@H]4C[C@@H]3C[C@H]4NCCO)c12: ≤ 0.5 µg/mL
CNc1cc(F)cc2c1[nH]c1nc(Oc3cnc(CN)nc3)nc(N3CCC4(CC[C@H]4N)C3)c12 (stereo partly shown): 1 µg/mL
CNc1cc(F)cc2c1[nH]c1nc(Oc3ccc4ccnn4c3)nc(N3C[C@H]4C[C@@H]3C[C@H]4N)c12: ≤ 0.5 µg/mL
CNc1cc(F)cc2c1[nH]c1nc(Oc3cnc4scnc4c3)nc(N3C[C@H]4C[C@@H]3C[C@H]4N)c12: ≤ 0.5 µg/mL
CNc1cc(F)cc2c1[nH]c1nc(Oc3ccc4ccnn4c3)nc(N3CC4(CCC4N)C3)c12 (stereo not shown): ≤ 0.5 µg/mL
CNc1cc(F)cc2c1[nH]c1nc(Oc3cnc(C)nc3)nc(N3CC4CC(OS(N)(=O)=O)C4C3)c12 (stereo not shown): ≤ 0.5 µg/mL
CNc1cc(F)cc2c1[nH]c1nc(Oc3cnc4ccnn4c3)nc(N3C[C@@H]4[C@H](N)C[C@]4(C)C3)c12: ≤ 0.5 µg/mL

Please report MIC Ec for every entry that follows.
1. CNc1cc(F)cc2c1[nH]c1nc(Oc3cnc(C(C)O)c(Cl)c3)nc(N3CC4CCNC4C3)c12 (stereo not shown)
2. CCc1cc(F)cc2c1[nH]c1nc(Oc3cnc(C)nc3)nc(N3C[C@H]4C[C@@H]3C[C@H]4N)c12
3. CNc1cc(F)cc2c1[nH]c1nc(Oc3cnc4c(c3)C(=O)OC4(C)C)nc(N3CC4C[C@@H](N)C4C3)c12 (stereo partly shown)
4. CNc1cc(F)cc2c1[nH]c1nc(Oc3cnn4ccnc4c3)nc(N3C[C@H]4C[C@@H]3C[C@H]4N)c12

[reply]
1. ≤ 0.5 µg/mL
2. 2 µg/mL
3. ≤ 0.5 µg/mL
4. ≤ 0.5 µg/mL
